Test: activity coefficient (dimensionless); of the first substance listed, at infinite dilution; xn = mol fraction of the nth substance listed
Settings: 323.14 K; 101 kPa; Liquid; Chromatography; x1 = 0
// FALSE strictly below 30 in activity coefficient; TRUE otherwise

These solved cases illustrate the format of a correct answer.
[
  {
    "COMPOUND": "CCCCCCC [heptane] + CCCCn1cc[n+](C)c1.O=S(=O)([O-])C(F)(F)F",
    "CLASSIFICATION": "TRUE"
  },
  {
    "COMPOUND": "C=CCCCC [hex-1-ene] + CCCCn1cc[n+](C)c1.O=S(=O)([O-])C(F)(F)F",
    "CLASSIFICATION": "FALSE"
  },
  {
    "COMPOUND": "CCCCCC [hexane] + CCCCn1cc[n+](C)c1.O=S(=O)([O-])C(F)(F)F",
    "CLASSIFICATION": "FALSE"
  }
]

Now consider a different compound.
In: Would you say C=CCCCCC [1-heptene] + CCCCn1cc[n+](C)c1.O=S(=O)([O-])C(F)(F)F shows activity coefficient at minimum 30?
Out: FALSE

---

Each entry below carries its reported activity coefficient.
Assay: activity coefficient (dimensionless); of the first substance listed, at infinite dilution; xn = mol fraction of the nth substance listed
Details: 313.15 K; 101 kPa; Liquid; Chromatography; x1 = 0

These recorded examples may help you get a feel for the data.
[
  {
    "COMPOUND": "C=CCCCCCC [oct-1-ene] + CCCCCCn1cc[n+](C)c1.O=S(=O)([O-])C(F)(F)F",
    "activity coefficient": 15
  },
  {
    "COMPOUND": "C=CCCCCCC [oct-1-ene] + CCCCn1cc[n+](C)c1.O=S(=O)([O-])C(F)(F)F",
    "activity coefficient": 32
  },
  {
    "COMPOUND": "C=CCCCCC [1-heptene] + CCCCCCn1cc[n+](C)c1.O=S(=O)([O-])C(F)(F)F",
    "activity coefficient": 10.8
  }
]

Could you now look at the following compound, please?
In: Identify measured activity coefficient corresponding to C=CCCCCC [1-heptene] + CCCCn1cc[n+](C)c1.O=S(=O)([O-])C(F)(F)F
Out: 21.3

---

Each entry below carries its reported activity coefficient.
Assay: activity coefficient (dimensionless); of the first substance listed, at infinite dilution; xn = mol fraction of the nth substance listed
Details: 333.14 K; 101 kPa; Liquid; Chromatography; x1 = 0
In your answer, state the number alone without any accompanying words.

In: Identify measured activity coefficient corresponding to C=CCCCC [hex-1-ene] + CCCCn1cc[n+](C)c1.O=S(=O)([O-])C(F)(F)F
Out: 13

In: Identify measured activity coefficient corresponding to C=CCCCCCC [oct-1-ene] + CCCCCCn1cc[n+](C)c1.O=S(=O)([O-])C(F)(F)F
Out: 14.3

In: Identify measured activity coefficient corresponding to C=CCCCCC [1-heptene] + CCCCCCn1cc[n+](C)c1.O=S(=O)([O-])C(F)(F)F
Out: 10.4

In: Identify measured activity coefficient corresponding to CCCCCCCC [octane] + CCCCCCn1cc[n+](C)c1.O=S(=O)([O-])C(F)(F)F
Out: 23.8
